# targetEntity: T1, human PD-L1 extracellular domain (human, UniProt Q9NZQ7 19-238)
# T1 construct: also called recombinant PD-L1; recombinant human PD-L1 extracellular domain protein
# T1 sequence (Q9NZQ7 19-238 limits assumed): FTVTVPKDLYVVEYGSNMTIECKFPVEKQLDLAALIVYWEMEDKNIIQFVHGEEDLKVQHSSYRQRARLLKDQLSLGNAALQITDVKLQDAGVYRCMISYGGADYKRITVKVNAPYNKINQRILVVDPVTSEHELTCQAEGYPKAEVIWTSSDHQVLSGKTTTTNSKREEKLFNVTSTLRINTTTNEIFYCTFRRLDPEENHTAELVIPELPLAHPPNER
# experimentalProtocol: BLI (Octet Red 96), antibody on anti-human Fc biosensor, PD-L1 ECD in solution, 1:1 global fit
outcomeMeasure: Kd
Write the quantity with the unit trailing the number.

binder | result
AB4HU (humanized form of antibody AB4) (antibody, human IgG1, kappa, V domains shown, Humanized, human gamma-1 / kappa constant domains) VH: EVQLVESGGGLVQPGGSLRLSCTVSGIDLSVINMGWVRQAPGKGLEWIGTITYVGNTYYASWAKGRFTISKTSTTVDLKITSPTTEDTAVYYCARESGTIYYSYFNLWGQGTLVTVSS VL: AFELTQSPSSLSASVGDRVTIKCQASESISNYLSWYQQIPGKVPKLLIYYASNLASGVPSRFSGSGSGTDFTLTISSLQPEDVATYYCQSYYGGGSAYTFGGGTKVEIKR | 1.7 nM
AB5 (rabbit/human chimeric anti-PD-L1 antibody) (antibody, human IgG1, kappa, V domains shown, Rabbit variable domains on human IgG1 / human kappa constant domains; also called AB5 CHIMERIC) VH: QSVEESGGRLVTPGTPLTLTCTVSGIDLNTYDMIWVRQAPGKGLEWIGIITYSGSRYYANWAKGRFTISKTSTTVDLRITSPTTEDTATYFCARDYMSGSHLWGPGTLVTVSS VL: AYDMTQTPASVEVAVGGTVTIKCQASEDIYSFLAWYQLKPGQSPKLLIHSASSLASGVSSRFKGSGSGTHFTLTISGVECADAATYYCQQGYGKNNVDNAFGGGTEVVVKR | 0.286 nM

Prompt: Kd lookup needed for AB3 (rabbit/human chimeric anti-PD-L1 antibody) (antibody, human IgG1, kappa, V domains shown, Rabbit variable domains on human IgG1 / human kappa constant domains; also called AB3 CHIMERIC) VH: QEQLEESGGGLVTPGGTLTLTCTVSGFSLSSYWMSWVRQAPGKGLEWIGVIDTNVYIYYANWAKGRFTISKTSTTVDLKITSPTTEDTATYFCARYVGNNDDYINLWGPGTLVTVSS VL: AVLTQTPSPVSAAVGGTVSISCQSSQSVYNGYWLSWYQQKPGQPPKLLIYGASTLASGVPSRFKGSGSGTQFTLTINDVQCDDAATYYCLGSYTSSTENSFGGGTEVVVKR , thanks.
Response: 0.467 nM
